Target: 5-HT3AB receptor (Homo sapiens, UniProt O95264+P46098, O95264:E122Q/O95264:Y146A)
Sequence (P46098 24-478): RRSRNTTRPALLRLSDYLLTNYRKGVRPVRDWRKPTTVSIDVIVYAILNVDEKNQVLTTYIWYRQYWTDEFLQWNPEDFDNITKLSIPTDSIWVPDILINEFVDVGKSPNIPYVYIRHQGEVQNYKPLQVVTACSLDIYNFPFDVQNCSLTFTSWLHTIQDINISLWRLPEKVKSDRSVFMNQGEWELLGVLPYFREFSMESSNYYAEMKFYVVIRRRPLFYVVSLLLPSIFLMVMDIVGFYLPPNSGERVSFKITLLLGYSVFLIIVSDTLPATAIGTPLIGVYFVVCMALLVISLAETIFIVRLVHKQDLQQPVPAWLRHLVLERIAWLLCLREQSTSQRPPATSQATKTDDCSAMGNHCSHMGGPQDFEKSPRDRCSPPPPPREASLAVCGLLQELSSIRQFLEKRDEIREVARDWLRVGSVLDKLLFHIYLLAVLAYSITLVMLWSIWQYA
Sequence (O95264 22-441 E122Q/Y146A): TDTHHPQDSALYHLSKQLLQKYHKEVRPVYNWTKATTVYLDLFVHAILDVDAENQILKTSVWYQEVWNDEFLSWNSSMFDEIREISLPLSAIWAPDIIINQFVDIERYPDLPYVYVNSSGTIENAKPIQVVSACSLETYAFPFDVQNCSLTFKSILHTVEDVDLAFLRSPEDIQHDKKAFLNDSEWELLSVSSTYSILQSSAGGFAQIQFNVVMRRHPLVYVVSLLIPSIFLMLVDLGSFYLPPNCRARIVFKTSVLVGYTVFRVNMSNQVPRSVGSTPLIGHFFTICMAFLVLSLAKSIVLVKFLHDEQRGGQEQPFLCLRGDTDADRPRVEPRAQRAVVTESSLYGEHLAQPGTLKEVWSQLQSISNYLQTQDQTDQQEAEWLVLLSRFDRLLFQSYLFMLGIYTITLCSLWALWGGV
Assay: two-electrode voltage clamp, Xenopus oocytes

>  <input smiles>
N=C(N)NC(=N)Nc1cccc(Cl)c1

>  <EC50 (µM)>
3.5

$$$$

----------
Target: 5-HT3AB receptor (Homo sapiens, UniProt O95264+P46098, P46098:Y148A)
Test: two-electrode voltage clamp, Xenopus oocytes
pEC50: −log10 of the molar value.

>  <input smiles>
N=C(N)NC(=N)Nc1cccc(Cl)c1

>  <pEC50>
4.95

$$$$

----------
Target: 5-HT3A receptor (homomeric) (Homo sapiens, UniProt P46098, Y148A)
Sequence (P46098 24-478 Y148A): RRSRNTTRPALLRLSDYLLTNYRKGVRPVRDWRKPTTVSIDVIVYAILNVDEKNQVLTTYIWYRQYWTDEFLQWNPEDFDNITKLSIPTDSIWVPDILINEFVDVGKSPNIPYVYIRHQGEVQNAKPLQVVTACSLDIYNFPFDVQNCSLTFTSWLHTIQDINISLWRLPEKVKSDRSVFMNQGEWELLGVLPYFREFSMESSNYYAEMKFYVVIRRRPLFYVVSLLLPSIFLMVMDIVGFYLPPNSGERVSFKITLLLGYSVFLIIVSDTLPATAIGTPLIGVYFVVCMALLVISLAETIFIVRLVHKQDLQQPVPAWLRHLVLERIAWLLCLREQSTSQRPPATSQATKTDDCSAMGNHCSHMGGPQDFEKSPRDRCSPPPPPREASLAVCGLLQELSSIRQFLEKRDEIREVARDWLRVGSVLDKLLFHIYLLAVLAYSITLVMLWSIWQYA
Test: two-electrode voltage clamp, Xenopus oocytes
pEC50: −log10 of the molar value.
measurement kind: pEC50

>  <input smiles>
N=C(N)NC(=N)Nc1cccc(Cl)c1

>  <measurement kind>
pEC50

>  <measured value>
4.61

$$$$
